Assay: activity coefficient (dimensionless); of the first substance listed, at infinite dilution; xn = mol fraction of the nth substance listed
Conditions: 313 K; 101.33 kPa; Liquid; Chromatography; x1 = 0
Readout Kind: activity coefficient
// return just the number, without any unit appended

Consider the following illustrative entries.
ClCCl [dichloromethane] + C[n+]1ccn(CCO)c1.O=S(=O)([O-])C(F)(F)C(F)(F)C(F)(F)C(F)(F)F; 1.99
CCCCCCCC [octane] + C[n+]1ccn(CCO)c1.O=S(=O)([O-])C(F)(F)C(F)(F)C(F)(F)C(F)(F)F; 75.8
C1CCOC1 [tetrahydrofuran] + C[n+]1ccn(CCO)c1.O=S(=O)([O-])C(F)(F)C(F)(F)C(F)(F)C(F)(F)F; 1.7
Cc1cccc(C)c1 [1,3-dimethylbenzene] + C[n+]1ccn(CCO)c1.O=S(=O)([O-])C(F)(F)C(F)(F)C(F)(F)C(F)(F)F; 10.8
Cc1ccccc1 [toluene] + C[n+]1ccn(CCO)c1.O=S(=O)([O-])C(F)(F)C(F)(F)C(F)(F)C(F)(F)F; 6.83
CCCCCCC [heptane] + C[n+]1ccn(CCO)c1.O=S(=O)([O-])C(F)(F)C(F)(F)C(F)(F)C(F)(F)F; 39.7

Here's the next entry for you.
Q: Please look at this compound and report its activity coefficient: CC(C)=O [acetone] + C[n+]1ccn(CCO)c1.O=S(=O)([O-])C(F)(F)C(F)(F)C(F)(F)C(F)(F)F
Ans: 0.91

====

Assay: activity coefficient (dimensionless); of the first substance listed, at infinite dilution; xn = mol fraction of the nth substance listed
Conditions: 323 K; 101.33 kPa; Liquid; Chromatography; x1 = 0
Readout Kind: activity coefficient
// return just the number, without any unit appended

Consider the following illustrative entries.
CCCCCC [hexane] + C[n+]1ccn(CCO)c1.O=S(=O)([O-])C(F)(F)C(F)(F)C(F)(F)C(F)(F)F; 13.7
C1COCCO1 [1,4-dioxane] + C[n+]1ccn(CCO)c1.O=S(=O)([O-])C(F)(F)C(F)(F)C(F)(F)C(F)(F)F; 1.61
C#CCCC [1-pentyne] + C[n+]1ccn(CCO)c1.O=S(=O)([O-])C(F)(F)C(F)(F)C(F)(F)C(F)(F)F; 4.21
C#CCCCCCC [1-octyne] + C[n+]1ccn(CCO)c1.O=S(=O)([O-])C(F)(F)C(F)(F)C(F)(F)C(F)(F)F; 21.2

Q: Please look at this compound and report its activity coefficient: Cc1ccccc1 [toluene] + C[n+]1ccn(CCO)c1.O=S(=O)([O-])C(F)(F)C(F)(F)C(F)(F)C(F)(F)F
Ans: 6.21

Q: Please look at this compound and report its activity coefficient: CC(C)=O [acetone] + C[n+]1ccn(CCO)c1.O=S(=O)([O-])C(F)(F)C(F)(F)C(F)(F)C(F)(F)F
Ans: 0.9

Q: Please look at this compound and report its activity coefficient: C1CCOC1 [tetrahydrofuran] + C[n+]1ccn(CCO)c1.O=S(=O)([O-])C(F)(F)C(F)(F)C(F)(F)C(F)(F)F
Ans: 1.64

Q: Please look at this compound and report its activity coefficient: CC#N [acetonitrile] + C[n+]1ccn(CCO)c1.O=S(=O)([O-])C(F)(F)C(F)(F)C(F)(F)C(F)(F)F
Ans: 0.93

Q: Please look at this compound and report its activity coefficient: C1CCCCC1 [cyclohexane] + C[n+]1ccn(CCO)c1.O=S(=O)([O-])C(F)(F)C(F)(F)C(F)(F)C(F)(F)F
Ans: 15.2

Q: Please look at this compound and report its activity coefficient: c1ccccc1 [benzene] + C[n+]1ccn(CCO)c1.O=S(=O)([O-])C(F)(F)C(F)(F)C(F)(F)C(F)(F)F
Ans: 3.85

Q: Please look at this compound and report its activity coefficient: C=CCCCCCC [oct-1-ene] + C[n+]1ccn(CCO)c1.O=S(=O)([O-])C(F)(F)C(F)(F)C(F)(F)C(F)(F)F
Ans: 36.6

Q: Please look at this compound and report its activity coefficient: CCCO [propan-1-ol] + C[n+]1ccn(CCO)c1.O=S(=O)([O-])C(F)(F)C(F)(F)C(F)(F)C(F)(F)F
Ans: 1.91

Q: Please look at this compound and report its activity coefficient: ClCCl [dichloromethane] + C[n+]1ccn(CCO)c1.O=S(=O)([O-])C(F)(F)C(F)(F)C(F)(F)C(F)(F)F
Ans: 1.85

Q: Please look at this compound and report its activity coefficient: Cc1ccccc1C [1,2-dimethylbenzene] + C[n+]1ccn(CCO)c1.O=S(=O)([O-])C(F)(F)C(F)(F)C(F)(F)C(F)(F)F
Ans: 8.9

Q: Please look at this compound and report its activity coefficient: CCCCCCC [heptane] + C[n+]1ccn(CCO)c1.O=S(=O)([O-])C(F)(F)C(F)(F)C(F)(F)C(F)(F)F
Ans: 30.9

All values here come from the NIST ThermoML archive (doi:10.1021/acs.jced.8b00080).
